Molecular target: MCH-2 (Homo sapiens, UniProt P55212)
Sequence (P55212 24-179 limits assumed): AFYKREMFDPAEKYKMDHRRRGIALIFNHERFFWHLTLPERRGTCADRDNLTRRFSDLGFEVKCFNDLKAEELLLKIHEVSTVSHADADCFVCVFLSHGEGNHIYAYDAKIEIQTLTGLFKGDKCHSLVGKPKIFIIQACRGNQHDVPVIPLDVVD
Sequence (P55212 194-293 limits assumed): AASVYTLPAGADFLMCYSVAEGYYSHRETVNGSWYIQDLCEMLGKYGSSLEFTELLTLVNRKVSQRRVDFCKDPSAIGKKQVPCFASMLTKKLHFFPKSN
Assay: Dissociation constant Ki and irreversible rate constant k3 for irreversible inhibitors (Mch2)
Type: biochemical
Settings: continuous assay 60 min, reaction initiated by adding enzyme to substrate-inhibitor mixture
Where a SMILES comes first, the peptide text is derived from it. The star is where a group is joined. Cbz = O=C(OCc1ccccc1)*; CH2F = FC*
Can you tell me MCH-2 k3/Ki for the items I'm about to list?

Field MCH-2 k3/Ki (MCH-2 (Homo sapiens, UniProt P55212)), entry `C[C@H](NC(=O)C(=O)Nc1ccccc1C(C)(C)C)C(=O)N[C@@H](CC(=O)O)C(=O)COc1ccccc1F` : 54,900 moles^−1 seconds^−1

Field MCH-2 k3/Ki (MCH-2 (Homo sapiens, UniProt P55212)), entry `CC(C)[C@H](NC(=O)C(=O)Nc1ccccc1F)C(=O)N[C@@H](CC(=O)O)C(=O)COc1c(F)c(F)cc(F)c1F` : 11,200 moles^−1 seconds^−1

Field MCH-2 k3/Ki (MCH-2 (Homo sapiens, UniProt P55212)), entry C[C@H](NC(=O)C(=O)Nc1ccccc1Cl)C(=O)N[C@@H](CC(=O)O)C(=O)COP(=O)(c1ccccc1)c1ccccc1 [Example 41] : 247,000 moles^−1 seconds^−1

Field MCH-2 k3/Ki (MCH-2 (Homo sapiens, UniProt P55212)), entry CC(NC(=O)C(NC(=O)OCc1ccccc1)C(C)C)C(=O)NC(CC(=O)O)C(=O)CF (stereo not drawn) [refer., Cbz-ValAlaAsp-CH2F, reference compound] (Cbz-Val-Ala-Asp-CH2F; configuration not given here) : 2,950 moles^−1 seconds^−1

Field MCH-2 k3/Ki (MCH-2 (Homo sapiens, UniProt P55212)), entry C[C@H](NC(=O)C(=O)Nc1ccccc1Cl)C(=O)N[C@@H](CC(=O)O)C(=O)COC(=O)c1c(Cl)cccc1Cl [Example 42] : 745,000 moles^−1 seconds^−1

Field MCH-2 k3/Ki (MCH-2 (Homo sapiens, UniProt P55212)), entry `COc1ccccc1NC(=O)C(=O)N[C@H](C(=O)N[C@@H](CC(=O)O)C(=O)COc1c(F)c(F)cc(F)c1F)C(C)C` : 61,500 moles^−1 seconds^−1

Field MCH-2 k3/Ki (MCH-2 (Homo sapiens, UniProt P55212)), entry `C[C@H](NC(=O)C(=O)Nc1cc(C(C)(C)C)ccc1C(C)(C)C)C(=O)N[C@@H](CC(=O)O)C(=O)COP(=O)(c1ccccc1)c1ccccc1` : 308,000 moles^−1 seconds^−1

Field MCH-2 k3/Ki (MCH-2 (Homo sapiens, UniProt P55212)), entry C[C@H](NC(=O)C(=O)Nc1ccccc1C(C)(C)C)C(=O)N[C@@H](CC(=O)O)C(=O)COC(=O)c1c(Cl)cccc1Cl [Example 76] : 6,960 moles^−1 seconds^−1

Field MCH-2 k3/Ki (MCH-2 (Homo sapiens, UniProt P55212)), entry `CC(C)[C@H](NC(=O)C(=O)Nc1ccccc1Cc1ccccc1)C(=O)N[C@@H](CC(=O)O)C(=O)COc1c(F)c(F)cc(F)c1F` : 25,300 moles^−1 seconds^−1

Field MCH-2 k3/Ki (MCH-2 (Homo sapiens, UniProt P55212)), entry `C[C@H](NC(=O)C(=O)NCCc1ccccc1)C(=O)N[C@@H](CC(=O)O)C(=O)COP(=O)(c1ccccc1)c1ccccc1` : 131,000 moles^−1 seconds^−1

Field MCH-2 k3/Ki (MCH-2 (Homo sapiens, UniProt P55212)), entry `C[C@H](NC(=O)C(=O)Nc1cc(C(C)(C)C)ccc1C(C)(C)C)C(=O)N[C@@H](CC(=O)O)C(=O)COC(=O)c1c(Cl)cccc1Cl` : 146,000 moles^−1 seconds^−1

Field MCH-2 k3/Ki (MCH-2 (Homo sapiens, UniProt P55212)), entry `C[C@H](NC(=O)C(=O)Nc1cc(C(F)(F)F)ccc1N1CCOCC1)C(=O)N[C@@H](CC(=O)O)C(=O)COP(=O)(c1ccccc1)c1ccccc1` : 98,500 moles^−1 seconds^−1

Field MCH-2 k3/Ki (MCH-2 (Homo sapiens, UniProt P55212)), entry `C[C@H](NC(=O)C(=O)NCc1ccccc1)C(=O)N[C@@H](CC(=O)O)C(=O)COC(=O)c1c(Cl)cccc1Cl` : 244,000 moles^−1 seconds^−1

Field MCH-2 k3/Ki (MCH-2 (Homo sapiens, UniProt P55212)), entry `CCCCCCCc1ccc(NC(=O)C(=O)N[C@H](C(=O)N[C@@H](CC(=O)O)C(=O)COc2c(F)c(F)cc(F)c2F)C(C)C)cc1` : 50,000 moles^−1 seconds^−1

Field MCH-2 k3/Ki (MCH-2 (Homo sapiens, UniProt P55212)), entry `C[C@H](NC(=O)C(=O)Nc1ccccc1F)C(=O)N[C@@H](CC(=O)O)C(=O)COc1c(F)c(F)cc(F)c1F` : 212,000 moles^−1 seconds^−1

Field MCH-2 k3/Ki (MCH-2 (Homo sapiens, UniProt P55212)), entry C[C@H](NC(=O)C(=O)Nc1cccc2c1CCCC2)C(=O)N[C@@H](CC(=O)O)C(=O)COC(=O)c1c(Cl)cccc1Cl [Example 62] : 126,000 moles^−1 seconds^−1

Field MCH-2 k3/Ki (MCH-2 (Homo sapiens, UniProt P55212)), entry `C[C@H](NC(=O)C(=O)Nc1ccccc1I)C(=O)N[C@@H](CC(=O)O)C(=O)COP(=O)(c1ccccc1)c1ccccc1` : 66,200 moles^−1 seconds^−1

Field MCH-2 k3/Ki (MCH-2 (Homo sapiens, UniProt P55212)), entry C[C@H](NC(=O)C(=O)Nc1cccc2c1CCCC2)C(=O)N[C@@H](CC(=O)O)C(=O)COP(=O)(c1ccccc1)c1ccccc1 [Example 61] : 120,000 moles^−1 seconds^−1

Field MCH-2 k3/Ki (MCH-2 (Homo sapiens, UniProt P55212)), entry `C[C@H](NC(=O)C(=O)NCc1cccc2ccccc12)C(=O)N[C@@H](CC(=O)O)C(=O)COc1c(F)c(F)cc(F)c1F` : 335,000 moles^−1 seconds^−1

Field MCH-2 k3/Ki (MCH-2 (Homo sapiens, UniProt P55212)), entry `C[C@H](NC(=O)C(=O)NC1CCCCC1)C(=O)N[C@@H](CC(=O)O)C(=O)COC(=O)c1c(Cl)cccc1Cl` : 655,000 moles^−1 seconds^−1

Field MCH-2 k3/Ki (MCH-2 (Homo sapiens, UniProt P55212)), entry `CC(C)[C@H](NC(=O)C(=O)Nc1cccc2ccccc12)C(=O)N[C@@H](CC(=O)O)C(=O)COc1cccc2ccccc12` : 83,700 moles^−1 seconds^−1

Field MCH-2 k3/Ki (MCH-2 (Homo sapiens, UniProt P55212)), entry `CC(C)[C@H](NC(=O)C(=O)Nc1cc(C(C)(C)C)ccc1C(C)(C)C)C(=O)N[C@@H](CC(=O)O)C(=O)COc1c(F)c(F)cc(F)c1F` : 8,230 moles^−1 seconds^−1

Field MCH-2 k3/Ki (MCH-2 (Homo sapiens, UniProt P55212)), entry `C[C@H](NC(=O)C(=O)Nc1ccc(F)cc1)C(=O)N[C@@H](CC(=O)O)C(=O)COP(=O)(c1ccccc1)c1ccccc1` : 424,000 moles^−1 seconds^−1

Field MCH-2 k3/Ki (MCH-2 (Homo sapiens, UniProt P55212)), entry `CC(C)[C@H](NC(=O)C(=O)Nc1ccccc1Cl)C(=O)N[C@@H](CC(=O)O)C(=O)COc1c(F)c(F)cc(F)c1F` : 161,000 moles^−1 seconds^−1

Field MCH-2 k3/Ki (MCH-2 (Homo sapiens, UniProt P55212)), entry `CC(C)[C@H](NC(=O)C(=O)Nc1ccc(F)cc1)C(=O)N[C@@H](CC(=O)O)C(=O)COc1c(F)c(F)cc(F)c1F` : 121,000 moles^−1 seconds^−1
